// data source = PubChem BioAssay AID2244

Experiment: Vero E6 cell cytotoxicity, SAR follow-up, cytotoxicity control for West Nile virus antiviral project, synthesized analogs (AID 2244)
Settings: CellTiter-Glo luminescence, 72 h, hits give low values; at 40 µM unless noted
Measured potencies and affinities stand elsewhere. Active and inactive are the calls of the source.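 How the source made its calls: active means viability below 70% at one or more tested concentrations; inactive means viability above 70% at every concentration.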
# key: entry, value: minimum viability

These recorded examples may help you get a feel for the data.
CC(=O)Nc1ccc2nc3n(c(=O)c2c1)CCC3 ... 79.7% [at 0.625 µM] (inactive)
COc1ccccc1NC(=O)CSc1nc2ccccc2c(=O)n1-c1ccc(F)cc1 ... 78.4% (inactive)
CC1(O)c2cc(Br)ccc2N=C2CCCN21 (stereo unspecified) ... 74.6% [at 0.156 µM] (inactive)
O=[N+]([O-])c1ccc2c(c1)C(O)N1CCCC1=N2 (stereo unspecified) ... 76.7% [at 0.078 µM] (inactive)
COc1ccc(NC(=O)CSc2nc3ccccc3c(=O)n2-c2ccc(F)cc2)cc1 ... 70.1% (inactive)

Now consider a different compound.
query: In one line, give reported minimum viability of the entry `COc1ccc(-c2csc(N(C)C(=O)c3ccccc3Cl)n2)cc1` .
result: 78.5% (inactive)
